Reference source for all entries: ChEMBL document CHEMBL4616696

Test system: Candida albicans
Experiment: Antifungal activity against fluconazole-resistant Candida albicans 632 assessed as reduction in fungal growth by NCCLS method
Assay type: functional
value_kind: MIC (µg/mL)
Your answer should be a plain number; it is taken to be in µg/mL.

Input line: Please look up its MIC: CN(CC(=O)NCc1ccccc1)C(=O)c1cccc2ccccc12
Output line: 8

Input line: Check CN(C/C=C/c1ccccc1)Cc1cccc2ccccc12 [NAFTIFINE] too.
Output line: 8

###

Test system: Candida tropicalis
Assay: Antifungal activity against Candida tropicalis ATCC 1369 assessed as reduction in fungal growth by NCCLS method
Assay type: functional
For each record, write down the corresponding MIC.
Your answer should be a plain number; it is taken to be in µg/mL.

Input line: Please look up its MIC: CN(CC(=O)Nc1ccccc1)C(=O)c1cccc2c1OCCO2
Output line: 1

Input line: Check CN(CC(=O)NCc1ccccc1)C(=O)c1cccc2c1OCCO2 too.
Output line: 0.5

Input line: Check CN(CC(=O)NCc1ccccc1)C(=O)c1ccc2ccccc2c1 too.
Output line: 0.25

Input line: Check CN(CC(=O)Nc1ccccc1)C(=O)c1ccc2ccccc2c1 too.
Output line: 0.5

Input line: Check CN(CC(=O)NCc1ccccc1)C(=O)c1cccc2ccccc12 too.
Output line: 0.5

Input line: Check CN(CC(=O)Nc1ccccc1)C(=O)c1cccc2ccccc12 too.
Output line: 0.5

Input line: Check CN(C/C=C/c1ccccc1)Cc1cccc2ccccc12 too.
Output line: 0.5

Input line: Check CN(CC(=O)Nc1ccccc1)C(=O)c1ccc2c(c1)OCCO2 too.
Output line: 0.5

Input line: Check CN(CC(=O)NCc1ccccc1)C(=O)c1ccc2c(c1)OCCO2 too.
Output line: 0.5

###

Experiment: Stability in human plasma assessed as compound remaining incubated for 60 mins
Assay type: ADME, cell-free
Conditions: read-out: Stability
value_kind: remaining at 1 h (%)
Your answer should be a plain number; it is taken to be in %.

Input line: Please look up its remaining at 1 h: CN(CC(=O)NCc1ccccc1)C(=O)c1cccc2c1OCCO2
Output line: 87.3

Input line: Check CN(CC(=O)NCc1ccccc1)C(=O)c1cccc2ccccc12 too.
Output line: 94.5

###

System: Candida albicans
Experiment: Antifungal activity against fluconazole-resistant Candida albicans 17# assessed as reduction in fungal growth by NCCLS method
Assay type: functional
value_kind: MIC (µg/mL)
Your answer should be a plain number; it is taken to be in µg/mL.

Input line: Please look up its MIC: CN(CC(=O)NCc1ccccc1)C(=O)c1cccc2ccccc12
Output line: 4

Input line: Check CN(C/C=C/c1ccccc1)Cc1cccc2ccccc12 too.
Output line: 8

###

Tested on: Candida albicans
Test: Antifungal activity against fluconazole-resistant Candida albicans 904 assessed as reduction in fungal growth by NCCLS method
Type: functional
For each record, write down the corresponding MIC.
Your answer should be a plain number; it is taken to be in µg/mL.

Input line: Please look up its MIC: CN(C/C=C/c1ccccc1)Cc1cccc2ccccc12 [NAFTIFINE]
Output line: 8

Input line: Check CN(CC(=O)NCc1ccccc1)C(=O)c1cccc2c1OCCO2 too.
Output line: 8

###

For each record, write down the corresponding remaining at 2 h.
Assay: Stability in human plasma assessed as compound remaining incubated for 120 mins
Assay type: ADME, cell-free
Conditions: read-out: Stability
Your answer should be a plain number; it is taken to be in %.

Input line: Please look up its remaining at 2 h: CN(CC(=O)NCc1ccccc1)C(=O)c1cccc2c1OCCO2
Output line: 83.5

Input line: Check CN(CC(=O)NCc1ccccc1)C(=O)c1cccc2ccccc12 too.
Output line: 91.6
